- Tested on: methicillin-resistant S. aureus (FPR3757)
- Protocol: MIC against clinical MRSA strain FPR3757 in Mueller-Hinton broth (CLSI)
- Format: cell-based, Staphylococcus aureus
- Study Conditions: Staphylococcus aureus, MRSA, MRSA clinical strain FPR3757, Mueller-Hinton broth, CLSI guidelines, complete inhibition of observable growth; read-out: MIC
Readout Kind: MIC

Known results for compounds:
FC(F)(F)c1ccc2c(Nc3ccc(C(F)(F)F)nc3)cc(C(F)(F)F)nc2c1 :: > 32 µg/mL
FC(F)(F)c1cc(Nc2ccc(Cl)c(Cl)c2)c2cccc(C(F)(F)F)c2n1 :: 0.5 to 2 µg/mL
Oc1ncccc1Nc1cc(C(F)(F)F)nc2cc(C(F)(F)F)ccc12 :: > 128 µg/mL

Inquiry: Test system methicillin-resistant S. aureus (FPR3757); read-out MIC; what value for O=c1cc(C(F)(F)F)[nH]c2cc(C(F)(F)F)cc(NC3CCC(C(F)(F)F)CC3)c12 (stereo not shown) ?
Reply text: < 0.06 µg/mL
